molecular target: human MCH-1 receptor (Homo sapiens (Human), UniProt Q99705); assay: Binding assay for human melanin-concentrating hormone (MCH1) receptor; details: membranes from CHO-K1 cells expressing human MCH1 receptor; 1.4 nM [3H]-labeled radioligand, 60 min at 25° C., pH 7.4; Ki from Cheng Prusoff equation
Sequence (Q99705 whole entry): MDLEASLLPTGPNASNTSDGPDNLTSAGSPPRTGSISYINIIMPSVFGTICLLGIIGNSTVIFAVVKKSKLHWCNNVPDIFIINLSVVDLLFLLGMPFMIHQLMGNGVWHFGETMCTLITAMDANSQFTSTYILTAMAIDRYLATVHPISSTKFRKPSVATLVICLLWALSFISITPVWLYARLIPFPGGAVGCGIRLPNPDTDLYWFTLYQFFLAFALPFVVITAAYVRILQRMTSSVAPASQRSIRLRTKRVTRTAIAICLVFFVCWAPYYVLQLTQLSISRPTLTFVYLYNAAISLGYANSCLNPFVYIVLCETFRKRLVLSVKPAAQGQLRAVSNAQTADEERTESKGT
pKi: −log10 of the molar value. Where a name gives a salt, the structure may show the parent alone.
readout_kind: pKi

> print(dat)
                                   compound  readout.kind  meas.value
1  Cl.Cn1c2c(c3ccc(-n4ccc(OCc5ccc(Cl)cc5F)cc4=O)nc31)CN1CCCC1C2 (stereo not shown) [Example 54, Hydrochloride]           pKi        7.59

1 = Cn1c2c(c3ccc(-n4ccc(OCc5ccc(F)cn5)cc4=O)cc31)C1CCCCN1CC2 (stereo not shown) [Example 21, Hydrochloride]
2 = Cl.Cn1c2c(c3ccc(-n4ccc(OCc5ccccc5)cc4=O)cc31)CCN1CCCCC21 (stereo not shown) [Example 5, Hydrochloride]
3 = O=c1cc(OCc2ccc(F)cn2)ccn1-c1ccc2c3c([nH]c2c1)CC1CCCN1C3 (stereo not shown) [Example 40, Hydrochloride]
input: Sort the 3 compounds by pKi; largest first, smallest last. Please respond by ranking the labels in the order requested.
output: 1, 3, 2
